Origin of values: patent US9932308B2

# ASSAY_REMARKS: Thermal stability test of crystal of compound (1) (change in content of compound (E-3) on heating)
# Assay type: physicochemical
# SETTINGS: heating at 70° C. for 192 hours
ENDPOINT_LABEL: [Y−X] (difference between Y and X, increase in content of compound (E-3)) (%)
Numbers only here, please. The scale is %.

// known answers, use as guide
Item under review: C[C@H](Cc1cc2c(c(C(N)=O)c1)N(CCCO)CC2)NCCOc1ccccc1OCC(F)(F)F [Example C3] . Reported [Y−X] (difference between Y and X, increase in content of compound (E-3))?
0.026

Would you kindly share the measured [Y−X] (difference between Y and X, increase in content of compound (E-3)) for C[C@H](Cc1cc2c(c(C(N)=O)c1)N(CCCO)CC2)NCCOc1ccccc1OCC(F)(F)F [Example C1] ?
0.001

I am curious: what [Y−X] (difference between Y and X, increase in content of compound (E-3)) value has been reported for C[C@H](Cc1cc2c(c(C(N)=O)c1)N(CCCO)CC2)NCCOc1ccccc1OCC(F)(F)F [Comparative Example C1, reference compound] ?
0.042

// [Y−X] (difference between Y and X, increase in content of compound (E-3)) lookup, key: C[C@H](Cc1cc2c(c(C(N)=O)c1)N(CCCO)CC2)NCCOc1ccccc1OCC(F)(F)F [Example C2]
0.012

Continue with the compound presented below.
Tell me the measured [Y−X] (difference between Y and X, increase in content of compound (E-3)) of C[C@H](Cc1cc2c(c(C(N)=O)c1)N(CCCO)CC2)NCCOc1ccccc1OCC(F)(F)F [Example C4] , please.
0.024
